molecular target: T1, cynomolgus PD-L1-His (Sino Biological, Cat. 90251-C08H) (cynomolgus, UniProt Q9NZQ7 19-238 (human entry)); experiment: BLI (Gator), cynomolgus PD-L1
T1 construct: Bought protein; also called Cyno PD-L1; Cynomolgus PD-L1 ECD-His; not shown: His tag
T1 sequence (Q9NZQ7 other isoform, or with tags, fused parts or gaps C08H C08H limits assumed): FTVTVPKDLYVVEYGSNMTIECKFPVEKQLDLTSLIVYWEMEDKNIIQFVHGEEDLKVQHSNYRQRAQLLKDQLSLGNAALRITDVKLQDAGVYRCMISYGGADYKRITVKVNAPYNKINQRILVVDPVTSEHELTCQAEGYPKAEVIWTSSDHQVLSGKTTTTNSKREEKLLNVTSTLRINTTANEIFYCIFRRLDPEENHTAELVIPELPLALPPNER
Value kind: pKd
Please keep in mind that pKd is minus log10 of the molar concentration; only the number is needed.

query: Would you mind telling me what pKd value was observed for 32E2 (antibody, human IgG1, V domains shown) VH: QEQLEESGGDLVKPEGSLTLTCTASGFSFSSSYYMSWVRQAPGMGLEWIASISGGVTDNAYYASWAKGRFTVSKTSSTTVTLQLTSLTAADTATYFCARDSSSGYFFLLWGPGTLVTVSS VL: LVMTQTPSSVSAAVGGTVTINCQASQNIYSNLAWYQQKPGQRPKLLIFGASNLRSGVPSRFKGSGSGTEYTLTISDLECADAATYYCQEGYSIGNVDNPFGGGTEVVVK ?
result: 9.28

query: Would you mind telling me what pKd value was observed for 27A2 (antibody, human IgG1, V domains shown) VH: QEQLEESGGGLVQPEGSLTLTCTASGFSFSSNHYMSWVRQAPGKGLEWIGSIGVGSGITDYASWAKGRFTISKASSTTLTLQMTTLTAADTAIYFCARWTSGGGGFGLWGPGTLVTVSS VL: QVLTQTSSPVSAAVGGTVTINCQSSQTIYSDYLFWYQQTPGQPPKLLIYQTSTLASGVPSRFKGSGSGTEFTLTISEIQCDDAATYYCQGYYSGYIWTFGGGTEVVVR ?
result: 10.52

query: Would you mind telling me what pKd value was observed for 57B10 (antibody, human IgG1, V domains shown) VH: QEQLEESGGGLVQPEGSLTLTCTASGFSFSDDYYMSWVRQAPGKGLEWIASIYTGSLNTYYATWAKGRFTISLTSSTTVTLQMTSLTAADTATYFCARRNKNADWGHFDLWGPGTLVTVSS VL: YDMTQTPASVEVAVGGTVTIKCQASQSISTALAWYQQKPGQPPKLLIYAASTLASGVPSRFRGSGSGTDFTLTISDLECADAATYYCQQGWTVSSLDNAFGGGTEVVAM ?
result: 10.52
